Please consider the recorded IC50 for Proto-oncogene tyrosine-protein kinase ROS (Homo sapiens) in what follows.

Reference set (4 entries):
| substance-smiles | test-target | IC50 |
| --- | --- | --- |
| COc1ccc(CNC(=O)[C@H]2CCCN(c3ccnc(Nc4cnn(C5CCNCC5)c4)c3)C2)cc1OC | Proto-oncogene tyrosine-protein kinase ROS (Homo sapiens) | Not Active |
| CN1CCC(n2cc(Nc3cc(N4CCC[C@H](C(=O)NCc5ccc(C#N)cc5)C4)ccn3)cn2)CC1 | Proto-oncogene tyrosine-protein kinase ROS (Homo sapiens) | Not Active |
| COc1ccc(CNC(=O)[C@H]2CCCN(c3ccnc(Nc4cnn(C)c4)c3)C2)cc1OC | Proto-oncogene tyrosine-protein kinase ROS (Homo sapiens) | Not Active |
| Cc1ccc(CNC(=O)[C@H]2CCCN(c3ccnc(Nc4cn(C)nc4C)c3)C2)cc1 | Proto-oncogene tyrosine-protein kinase ROS (Homo sapiens) | Not Active |

Exercise: Reported IC50, compound COc1ccc(CNC(=O)[C@H]2CCCN(c3ccnc(Nc4cnn(C5CCN(C)CC5)c4)c3)C2)cc1OC : ____
Solution: Not Active

Exercise: Same question for COc1ccc(CNC(=O)[C@H]2CCCN(c3ccnc(Nc4cn(C)nc4C)c3)C2)cc1OC please.
Solution: Not Active

Exercise: How about O=C(NCc1ccc(OC(F)(F)F)cc1)[C@H]1CCCN(c2ccnc(Nc3ncccn3)c2)C1 ?
Solution: Not Active

* * *

Hi there, I'd appreciate the recorded IC50 for every entry that follows.
tested on: HCC78; assay: cells; settings: Homo sapiens, HCC78, 72 h
Description: Antiproliferative activity against ROS1-addicted human HCC78 cells assessed as reduction in cell viability incubated for 72 hrs by MTT assay
Give the value in µM but do not write µM after it.

Exercise: GET /values?readout=IC50&item= COc1cc(N2CCC(N3CCN(C)CC3)CC2)ccc1Nc1cc(N2CCC[C@@H](C(=O)NCc3ccc(OC(F)(F)F)cc3)C2)ccn1
Solution: 10.9

Exercise: Same question for Cc1cc(Nc2cc(N3CCC[C@@H](C(=O)NCc4ccc(OC(F)(F)F)cc4)C3)ccn2)ccc1NC1CCN(C)CC1 please.
Solution: 13.5

Exercise: Lookup COc1cc(N2CCNCC2)ccc1Nc1cc(N2CCC[C@@H](C(=O)NCc3ccc(OC(F)(F)F)cc3)C2)ccn1
Solution: 25.3

Exercise: Item: Cc1cc(Nc2cc(N3CCC[C@H](C(=O)NCc4ccc(OC(F)(F)F)cc4)C3)ccn2)ccc1NC1CCN(C)CC1
Solution: 7.76

* * *

test system: HCC78; test: cells; conditions: Homo sapiens, HCC78, 72 h
What pIC50 was measured for each of the following?
# reply with the number alone; pIC50 is -log10 of concentration in mol/L

Exercise: Need pIC50, item O=C(NCc1ccc(OC(F)(F)F)cc1)[C@H]1CCCN(c2ccnc(Nc3ncccn3)c2)C1
Solution: 4.44

Exercise: Now this one: Cc1ccc(CNC(=O)[C@H]2CCCN(c3ccnc(Nc4cn(C)nc4C)c3)C2)cc1
Solution: 4.17

Exercise: Try Cc1nn(C)cc1Nc1cc(N2CCC[C@H](C(=O)NCc3ccc(OC(F)(F)F)cc3)C2)ccn1 next.
Solution: 4.46

Exercise: Do the same for COc1ccc(CNC(=O)[C@H]2CCCN(c3ccnc(Nc4cnn(C5CCNCC5)c4)c3)C2)cc1OC please
Solution: 4.08

Exercise: Same question for COc1cc(N2CCN(C)CC2)ccc1Nc1cc(N2CCC[C@H](C(=O)NCc3ccc(OC(F)(F)F)cc3)C2)ccn1 please.
Solution: 4.83

* * *

system: HCC78; assay: cells; conditions: Homo sapiens, HCC78, 72 h
measured-metric: IC50 (µM)
Lab book: enter the figure in µM, no units written.

Exercise: Fill blank: measured IC50 of the molecule COc1cc(N2CCC(N3CCOCC3)CC2)ccc1Nc1cc(N2CCC[C@@H](C(=O)NCc3ccc(OC(F)(F)F)cc3)C2)ccn1 is ____.
Solution: 13.7

Exercise: Now give it for COc1cc(N2CCC(N3CCN(C)CC3)CC2)ccc1Nc1cc(N2CCC[C@H](C(=O)NCc3ccc(OC(F)(F)F)cc3)C2)ccn1 too.
Solution: 11

Exercise: What do you get for COc1cc(N2CCNCC2)ccc1Nc1cc(N2CCC[C@H](C(=O)NCc3ccc(OC(F)(F)F)cc3)C2)ccn1 ?
Solution: 10.7

Exercise: Try this molecule next: COc1cc(N2CCC(N3CCOCC3)CC2)ccc1Nc1cc(N2CCC[C@H](C(=O)NCc3ccc(OC(F)(F)F)cc3)C2)ccn1
Solution: 15.2
